tested on: HL-60(TB) leukemia; experiment: NCI tumour cell line growth inhibition, 48 h

# molecule, TGI
rows = [
    ("COC(=O)N/N=C(\\C)c1sc(-c2nc(C)c(/C(C)=N/NC(=O)OC)s2)nc1C", "> 100 µM"),
    ("O[C@@H]1[C@H](OC2c3ccccc3-c3ccccc32)[C@H](OCc2ccccc2)[C@@H]2OC[C@H]1O2", "> 100 µM"),
    ("CNS(=O)(=O)NNS(=O)(=O)c1ccc(C)cc1", "> 100 µM"),
    ("COc1ccc(OC)c(/C=C2/C(=O)N=C(NC(C)=O)N2C)c1", "> 100 µM"),
    ("CCOC(=O)C#Cc1c(C(=O)OCC)nnn1[C@@H]1O[C@H](COC)[C@@H](OC)[C@H]1OC", "5.41 µM"),
    ("CN1S(=O)(=O)N(C)P12(N=P(CP(=NP13(N(C)S(=O)(=O)N1C)N(C)S(=O)(=O)N3C)(c1ccccc1)c1ccccc1)(c1ccccc1)c1ccccc1)N(C)S(=O)(=O)N2C", "> 100 µM"),
    ("N#CCC(=O)N/N=C\\C(O)C(O)C(O)C(O)CO (centres undefined)", "> 100 µM"),
    ("N#CC1=C(N)Oc2c(ccc3ccccc23)C1c1cc2ccccc2n2nnnc12 (centres undefined)", "16.7 µM"),
    ("COc1cc2c3c(n(CCCN)c(=O)c2cc1OC)-c1ccc(N)cc1C3=O", "4.91 µM"),
]

###

test system: MDA-MB-435; assay: NCI tumour cell line growth inhibition, 48 h
// reported TGI per item

# compound, TGI
rows = [
    ("O=C(CC1(O)C(=O)Nc2c(Cl)cc(Cl)cc21)c1cccc([N+](=O)[O-])c1 (stereo unspecified)", "16.3 µM"),
    ("O=C1c2ccccc2-c2c1c1c(O)cccc1n2Cc1ccccc1", "> 100 µM"),
    ("COc1cc2c(cc1OCCCOc1cc3c(cc1OC)C(=O)N1CCC[C@H]1C(=O)N3)N=C[C@@H]1CCCN1C2=O", "31.5 µM"),
    ("S=c1[nH]nc(Cn2c3ccc(Br)cc3c3nc4ccccc4nc32)o1", "> 31.6 µM"),
    ("CC[C@@H]1CC[C@@H]2[C@H](CC[C@]3(C)[C@@H](O[N+](=O)[O-])CC[C@@H]23)[C@H]1C(C)=O", "> 100 µM"),
    ("CO/C(N)=C(\\C#N)N=Cc1ccsc1", "> 100 µM"),
]

###

tested on: T-47D breast; assay: NCI tumour cell line growth inhibition, 48 h

# compound, system, op, TGI (µM)
measured = [
    ("COC(=O)c1c(C)cccc1C1CN=NC12Cc1cc(C)c(C)cc1C2=O (stereo not given)", "T-47D breast", ">", 100),
    ("COc1cc2c(cc1OCCCOc1cc3c(cc1OC)C(=O)N1CCC[C@H]1C(=O)N3)N=C[C@@H]1CCCN1C2=O", "T-47D breast", "=", 77.3),
    ("COc1ccc(NC(=S)c2ccc([N+](=O)[O-])o2)cc1", "T-47D breast", "=", 17.3),
    ("COC(=O)/C(=N\\N)C(C(=O)C(=O)Nc1cc(Cl)ccc1Cl)c1nc2ccc([N+](=O)[O-])cc2[nH]c1=O (stereo not given)", "T-47D breast", ">", 100),
    ("NS(=O)(=O)c1c(O)c2ccccc2oc1=O", "T-47D breast", ">", 100),
]

###

Reported TGI is given for each of the following compounds.
tested on: SNB-75 CNS; experiment: NCI tumour cell line growth inhibition, 48 h
measure: TGI (µM)

# compound, measure, op, quantitative_result
rows = [
    ("CC[C@]12C=CCN3CC[C@@]4(c5ccc(OC)cc5N(C)[C@H]4[C@@](O)(C(=O)OC)[C@@H]1OC(=O)CCCN1CCN(CCCC(=O)O[C@@H]4[C@]5(CC)C=CCN6CC[C@@]7(c8ccc(OC)cc8N(C)[C@H]7[C@@]4(O)C(=O)OC)[C@@H]65)CC1)[C@@H]32", "TGI", "=", 1.95),
    ("COC(=O)c1sc(=S)sc1SCc1cccc(CSc2sc(=S)sc2C(=O)OC)c1", "TGI", "=", 26.6),
    ("O=C1NC(c2ccccc2Cl)Nc2ccccc21 (centres undefined)", "TGI", "=", 49.1),
    ("NCCc1ccc(S(=O)(=O)O)cc1[N+](=O)[O-]", "TGI", ">", 100),
    ("Nc1ccc2c(=S)c3ccccc3[nH]c2c1", "TGI", ">", 100),
    ("C#CCCCCCC(=O)N[C@H]1C=C[C@@H]2/C=C(C)/C=C/[C@@H](C)[C@H]([C@H](C)[C@H](O)[C@@H](C)NC(C)=O)OC(=O)/C=C/C=C(C)\\C=C\\[C@]2(C)C1", "TGI", ">", 40),
    ("CN(C)CCCC1(c2ccc(F)cc2)OCc2cc(-c3csc4ccccc34)ccc21 (centres undefined)", "TGI", "=", 2.8),
    ("CN1CCN(C(=O)/C=C/c2ccc([N+](=O)[O-])o2)CC1", "TGI", "=", 75.8),
    ("COc1ccc(-n2c(=O)c3ccccc3n(Cc3ccc(C(=O)NO)cc3)c2=O)cc1", "TGI", "=", 5.71),
    ("COc1ccc(OC)c(/C=C2/C(=O)N=C(NC(C)=O)N2C)c1", "TGI", ">", 100),
    ("COc1cc(NC(=O)COc2ccccc2)c(C(N)=O)cc1OC", "TGI", "=", 11.9),
    ("N#CC1=C(S)N(C2OC(CO)C(O)C(O)C2O)C(c2ccccc2)=CC1c1ccco1 (centres undefined)", "TGI", "=", 45.1),
    ("Fc1ccc2c(c1)SC1=Nc3sc4cc(F)ccc4[n+]3CN12", "TGI", "=", 36.8),
    ("NCCCCNOCCCN", "TGI", ">", 100),
    ("CC(C)(C)c1ccc(OCCOCCOc2ccc(C(C)(C)C)cc2S(N)(=O)=O)c(S(N)(=O)=O)c1", "TGI", ">", 100),
    ("C=CCN(CC=C)Cc1c[nH]c2ccccc12", "TGI", ">", 100),
    ("COc1cc2c(cc1OCCCOc1cc3c(cc1OC)C(=O)N1CCC[C@H]1C(=O)N3)N=C[C@@H]1CCCN1C2=O", "TGI", "=", 36),
    ("O=S(=O)(O)C(c1ccccc1)C(O)c1ccccc1 (centres undefined)", "TGI", ">", 100),
    ("O=C(O)CCC(NC(=O)c1ccc(Nc2nc3ccc(C(F)(F)F)cc3nc2C(=O)O)cc1)C(=O)O (centres undefined)", "TGI", ">", 100),
    ("CCCCCCCCCCN=C(N)c1ccc(N2CCN(c3ccc(C(N)=NCCCCCCCCCC)cc3)CC2)cc1", "TGI", ">", 50),
    ("COC(=O)C(C)NP(=O)(OCc1cccc(Cn2cnc3c(N)ncnc32)c1)Oc1ccccc1 (centres undefined)", "TGI", ">", 100),
    ("COc1ccc([C@@H]2[C@@H](Oc3ccccc3)C(=O)N2c2cc(OC)c(OC)c(OC)c2)cc1F", "TGI", ">", 100),
    ("NS(=O)(=O)c1cc2c(cc1Cl)NCNS2(=O)=O", "TGI", ">", 100),
    ("Cc1ccc2c(c1C)CC1(Cc3ccc(C)c(C)c3C1=O)C2=O (centres undefined)", "TGI", ">", 100),
    ("O=C1c2ccccc2N1C(=O)c1ccccc1[N+](=O)[O-]", "TGI", ">", 100),
    ("COc1ccc(C(C)Nc2cc(OC)c(OC)c(OC)c2)cc1 (centres undefined)", "TGI", ">", 100),
    ("Cc1cccc(Oc2ccc(Nc3ncnc4ccc(NC(=O)CN(C)C)cc34)cc2Cl)c1", "TGI", "=", 5.05),
    ("COC(=O)C1=C(OC)C(=P2(c3ccccc3)CC(c3ccccc3)=C2c2ccccc2)C(C(=O)OC)=C1C(=O)OC (centres undefined)", "TGI", ">", 100),
    ("Cc1csc(=Nc2ccccc2)n1CCC(O)(P(=O)(O)O)P(=O)(O)O", "TGI", ">", 100),
    ("COc1cc(/C=C/c2cc(/C=C/c3ccc(O)c(OC)c3)n(C(=O)Nc3ccc(C)cc3)n2)ccc1O", "TGI", "=", 1.36),
    ("CC(=O)O[C@H]([C@H](OC(C)=O)[C@H](C)OC(C)=O)[C@@H](/C=C/[C@H]1CC=CC(=O)O1)OC(C)=O", "TGI", "=", 61.7),
    ("NS(=O)(=O)c1c(O)c2ccccc2oc1=O", "TGI", ">", 100),
    ("CC1(C)CC(=O)C(C(=O)Nc2cccs2)=C(O)C1", "TGI", "=", 59.3),
    ("CC(=O)O[C@H]1C[C@@H]2[C@@]3(C)CC[C@H]4C[C@@]4(C)[C@@H]3CC[C@@]2(C)C2=CCC3=C(COC3=O)[C@]21C", "TGI", "=", 51.2),
    ("Oc1c(Br)cc(Cl)cc1C(c1cc(Cl)cc(Br)c1O)C(Cl)(Cl)Cl", "TGI", "=", 12.3),
    ("COC(=O)[C@@H]1Cc2ccc(OC)c(c2)OCCC(=O)N1", "TGI", ">", 100),
    ("COC(=O)C(=O)C(C(=O)C(=O)Nc1cccc(OC)c1)c1nc2ccc(Cl)cc2[nH]c1=O (centres undefined)", "TGI", ">", 100),
    ("Cc1nc2ccc(N=Nc3c(C)noc3C)cc2[nH]1", "TGI", "=", 32.9),
    ("CC(C)C(=O)Cc1ccc2ccccc2n1", "TGI", ">", 100),
]

These measurements were taken from PubChem BioAssay (NCI).
